# system: T1, recombinant human IL4Rα-his protein (in house made) (human, UniProt P24394 26-232, limits assumed)
# T1 construct: also called Human IL4Ra-his
# protocol_description: SPR (Biacore), antibody captured, IL4Rα-his flowed
readout_label: koff
Give the figure together with its unit, number first.

Query (binder): mouse antibody B1D2F7D3B5 (antibody, V domains shown, Mouse hybridoma mAb) VH: EVKLVESGGGLVKPGGSLKLSCAASGFTFSSYAMSWVRQTPEKRLEWVASISSGDSTYYLDSVKGRFTISRDNAMNILYLQMSSLRSEDTAVYYCERSGGSAPYWGQGTLVSVSA VL: QIVLTQSPAIMSASPGEMVTISCSASSSVSYMYWYQQKPGSSPKPWIYRTSNLASGVPARFSGSGSGTSYSLTISSMEAEDAATYYCQQYHSFPLTFGAGTKLELK ; field requested: koff 0.000266 s⁻¹
